Property: Potency; scope: individual molecules
assay: Identification of antibody-drug conjugate (ADC) payloads which are substrates of ATP-binding cassette drug efflux transporters: ABCB1-HEK293-MDR-19 cell line with tariquidar; settings: HEK293 ABCB1 (MDR-19) + tariquidar, CellTiter-Glo viability, 48 h
Records with an inconclusive call do not appear. Activity calls are given as the source filed them. Calls come from the whole dose curve; as a rule, active = well fitted inhibition curve with a large enough effect; inconclusive = small, poorly fitted or top-dose-only effect; inactive = flat fitted curve, though single readings scatter. Non-standard residues stand in square brackets, D forms with d. Residues, ends and D or L forms follow the SMILES beside them. Dolaproine = CO[C@@H]([C@@H]1CCCN1)[C@@H](C)C(=O)O; Dil = CC[C@H](C)[C@H](NC)[C@@H](CC(=O)O)OC; NMeV = CN[C@H](C(=O)O)C(C)C
quantity-name: Potency

• CC[C@H](C)[C@@H]([C@@H](CC(=O)N1CCC[C@H]1[C@H](OC)[C@@H](C)C(=O)N[C@@H](Cc1ccccc1)C(=O)O)OC)N(C)C(=O)[C@@H](NC(=O)[C@@H](NC)C(C)C)C(C)C (H-[NMeV]V[Dil][Dolaproine]F-OH) = 529 nM (active)
• COC(=O)c1cc2c3c(cc(O)c2[nH]1)N(C(=O)c1cc2cc(OC)c(OC)c(OC)c2[nH]1)CC3CCl (stereo not drawn) = 0.7 nM (active)
• COc1cccc2c1C(=O)c1c(O)c3c(c(O)c1C2=O)C[C@@](O)(C(=O)CO)C[C@@H]3O[C@H]1C[C@H]2[C@H](O[C@@H]3[C@@H](OC)OCCN32)[C@H](C)O1 = 0.0265 nM (active)

* * *

Assay: Identification of antibody-drug conjugate (ADC) payloads which are substrates of ATP-binding cassette drug efflux transporters: ABCB1-HEK293-MDR-19 cell line with tariquidar
Settings: HEK293 ABCB1 (MDR-19) + tariquidar, CellTiter-Glo viability, 48 h
Source text: Antibody-drug conjugates (ADCs) feature an antibody recognizing a specific protein joined to a potent toxic payload. Numerous antibody-drug conjugates have received FDA approval; however, clinical resistance arises. Resistance mechanisms include decreased expression or mutation of the antibody target, impaired payload release, or increased expression of ATP-binding cassette (ABC) efflux transporters associated with multidrug resistance. […]
Inconclusive results are not listed. Calls of active or inactive are those of the source. Calls come from the whole dose curve; as a rule, active = well fitted inhibition curve with a large enough effect; inconclusive = small, poorly fitted or top-dose-only effect; inactive = flat fitted curve, though single readings scatter.
quantity-name: Potency

• CN(C)CCOc1ccc2[nH]c(C(=O)N3C[C@@H](CCl)c4c3cc(O)c3ccccc43)cc2c1 = 0.5 nM (active)
• CCN[C@H]1CO[C@@H](O[C@H]2[C@H](O[C@H]3C#C/C=C\C#C[C@]4(O)CC(=O)C(NC(=O)OC)=C3/C4=C\CSSSC)O[C@H](C)[C@@H](NO[C@H]3C[C@H](O)[C@H](SC(=O)c4c(C)c(I)c(O[C@@H]5O[C@@H](C)[C@H](O)[C@@H](OC)[C@H]5O)c(OC)c4OC)[C@@H](C)O3)[C@@H]2O)C[C@@H]1OC = 0.1 nM (active)
• CCc1c2c(nc3ccc(O)cc13)-c1cc3c(c(=O)n1C2)COC(=O)[C@]3(O)CC = 4.2 nM (active)
• CCN(C(C)=O)[C@H]1CO[C@@H](O[C@H]2[C@H](O[C@H]3C#C/C=C\C#C[C@]4(O)CC(=O)C(NC(=O)OC)=C3/C4=C\CSSSC)O[C@H](C)[C@@H](NO[C@H]3C[C@H](O)[C@H](SC(=O)c4c(C)c(I)c(O[C@@H]5O[C@@H](C)[C@H](O)[C@@H](OC)[C@H]5O)c(OC)c4OC)[C@@H](C)O3)[C@@H]2O)C[C@@H]1OC = 1.2 nM (active)
